Assayed Target: C-CBL (46-435) (Homo sapiens, UniProt P22681)
Construct: N-terminal biotinylated WT CBL-B (36-427) and C-CBL (46-435) were captured on a streptavidin (SA) coated sensor chip
Sequence (P22681 46-435): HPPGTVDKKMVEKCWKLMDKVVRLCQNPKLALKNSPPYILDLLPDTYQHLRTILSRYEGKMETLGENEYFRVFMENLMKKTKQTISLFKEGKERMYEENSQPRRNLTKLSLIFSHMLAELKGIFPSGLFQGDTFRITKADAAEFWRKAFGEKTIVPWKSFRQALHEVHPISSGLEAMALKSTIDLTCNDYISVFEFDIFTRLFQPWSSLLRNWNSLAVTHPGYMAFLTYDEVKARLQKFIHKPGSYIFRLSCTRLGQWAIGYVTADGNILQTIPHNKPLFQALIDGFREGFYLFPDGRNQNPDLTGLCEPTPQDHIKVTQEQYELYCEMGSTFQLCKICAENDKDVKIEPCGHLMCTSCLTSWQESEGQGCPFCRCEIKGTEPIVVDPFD
Protocol Notes: Surface Plasmon Resonance (SPR) assay, binding affinity and kinetics, C-CBL
Details: SPR at 10° C., biotinylated C-CBL (46-435) on streptavidin chip; geometric mean; read-out: C-CBL SPR Kd (nM) GMean
Sorting guide: entries reporting Kd beneath 100 nM go in the Yes pile, the rest go in the No pile.

>  <Compound>
Cn1cnnc1[C@@H](c1cccc(-c2n[nH]c3c(CO)nc(C(F)(F)F)cc23)c1)C1CCC1

>  <Classification>
No

$$$$
>  <Compound>
Cn1cnnc1CC1(c2cccc(-c3n[nH]c4c(CNC5CCCC5)nc(C(F)(F)F)cc34)c2)COC1

>  <Classification>
Yes

$$$$
>  <Compound>
Cn1cnnc1CC1(c2cccc(-c3n[nH]c4cnc(C5CC5)cc34)c2)COC1

>  <Classification>
No

$$$$
>  <Compound>
Cn1cnnc1CC1(c2cccc(-c3n[nH]c4c(CCN)nc(C(F)(F)F)cc34)c2)COC1

>  <Classification>
No

$$$$
>  <Compound>
Cn1cnnc1CC1(c2cccc(-c3n[nH]c4c(CN5CCCCC5)nc(C(F)(F)F)cc34)c2)COC1

>  <Classification>
No

$$$$
>  <Compound>
CC(N[C@H]1CCOC1)c1nc(C(F)(F)F)cc2c(-c3cccc(C4(Cc5nncn5C)COC4)c3)n[nH]c12 (single isomer, unassigned) [Example C82]

>  <Classification>
Yes

$$$$

###

Assayed Target: C-CBL (46-435) (Homo sapiens, UniProt P22681)
Construct: N-terminal biotinylated WT CBL-B (36-427) and C-CBL (46-435) were captured on a streptavidin (SA) coated sensor chip
Protocol Notes: Surface Plasmon Resonance (SPR) assay, binding affinity and kinetics, C-CBL
Details: SPR at 10° C., biotinylated C-CBL (46-435) on streptavidin chip; geometric mean; read-out: C-CBL SPR Kd (nM) GMean
Kd values by entry

>  <Compound>
C[C@@H](c1nc(C(F)(F)F)cc2c(-c3cccc(C4(Cc5nncn5C)COC4)c3)n[nH]c12)N(C)C (single isomer, unassigned)

>  <Kd / nM>
164

$$$$
>  <Compound>
C[C@@H](c1nc(C(F)(F)F)cc2c(-c3cccc(C4(Cc5nncn5C)COC4)c3)n[nH]c12)N1CC[C@H](F)C1 (single isomer, unassigned) [Example D97]

>  <Kd / nM>
230

$$$$
>  <Compound>
Cn1cnnc1[C@@H](c1cccc(-c2n[nH]c3c(CN[C@H]4CC[C@H](O)C4)nc(C(F)(F)F)cc23)c1)C1CCC1

>  <Kd / nM>
161

$$$$
>  <Compound>
Cn1cnnc1[C@@H](c1cccc(-c2n[nH]c3c(CN[C@@H]4CC[C@@H](O)C4)nc(C(F)(F)F)cc23)c1)C1CCC1

>  <Kd / nM>
152

$$$$
>  <Compound>
Cn1cnnc1CC1(c2cccc(-c3n[nH]c4c(CN5CC[C@H](F)C5)nc(C(F)(F)F)cc34)c2)COC1

>  <Kd / nM>
94

$$$$
>  <Compound>
CCNC(C)c1nc(C(F)(F)F)cc2c(-c3cccc([C@H](c4nncn4C)C4CCC4)c3)n[nH]c12 (single isomer, unassigned) [Example C89]

>  <Kd / nM>
125

$$$$
>  <Compound>
Cn1cnnc1[C@@H](c1cccc(-c2n[nH]c3c(CN[C@@H]4CCC[C@@H]4O)nc(C(F)(F)F)cc23)c1)C1CCC1

>  <Kd / nM>
7.6

$$$$
>  <Compound>
Cn1cnnc1[C@@H](c1cccc(-c2n[nH]c3c(CN[C@H]4C[C@@H](O)C4)nc(C(F)(F)F)cc23)c1)C1CCC1

>  <Kd / nM>
156

$$$$
>  <Compound>
CC(O)c1nc(C(F)(F)F)cc2c(-c3cccc(C4(Cc5nncn5C)COC4)c3)n[nH]c12 (single isomer, unassigned) [Example K10]

>  <Kd / nM>
291

$$$$
